target: UniProtKB Q9XUB2; assay: MEX-5/TCR-2 RNA interaction inhibitors, dose response, biochemical, C. elegans, fluorescence polarization (AID 1960)
Sequence (Q9XUB2 whole entry): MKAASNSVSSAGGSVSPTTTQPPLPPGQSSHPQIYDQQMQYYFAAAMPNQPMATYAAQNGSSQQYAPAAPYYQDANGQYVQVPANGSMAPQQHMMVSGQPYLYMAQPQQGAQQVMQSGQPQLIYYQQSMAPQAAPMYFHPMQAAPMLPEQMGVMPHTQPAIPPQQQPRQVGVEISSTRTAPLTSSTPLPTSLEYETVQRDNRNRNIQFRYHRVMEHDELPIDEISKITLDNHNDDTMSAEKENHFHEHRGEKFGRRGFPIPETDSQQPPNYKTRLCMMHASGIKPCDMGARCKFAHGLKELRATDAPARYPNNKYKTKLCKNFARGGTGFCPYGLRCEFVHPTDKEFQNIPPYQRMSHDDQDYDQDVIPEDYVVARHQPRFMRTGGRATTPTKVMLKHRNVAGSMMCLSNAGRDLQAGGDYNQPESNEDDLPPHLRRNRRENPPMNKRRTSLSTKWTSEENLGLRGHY
Active and inactive are the calls of the source.
Quick reference: EC50 of the listed items.
Observable: EC50

Compound	Observed
CN1CC=C2C(C#N)=C(N)C(C#N)(C#N)C(c3cccc(Cl)c3Cl)C2C1 (stereo not drawn)	13.5 µM (active)
COc1ccc(N2C(=O)NC(=O)/C(=C/c3ccc4c(c3)Cc3ccccc3-4)C2=O)cc1	> 300 µM (not active)
C=CCSc1nnc(N2C(=O)C(O)=C(C(=O)c3ccco3)C2c2ccc(F)cc2)s1 (stereo not drawn)	87.6 µM (active)
Cc1cc(/C=C2\C(=O)NC(=O)N(C)C2=O)c(C)n1-c1ccc2c(c1)OCO2	> 300 µM (not active)
CCCCN(C)C(=O)c1cccc(OC2CCN(CC(C)(C)C)CC2)c1	> 300 µM (inconclusive)
O=C(Nc1ccccc1)NC1(C(=O)NCc2ccc3c(c2)OCO3)CCCCC1	> 300 µM (not active)
Cc1nnc(N2C(=O)C(O)=C(C(=O)c3ccco3)C2c2cccc3ccccc23)s1 (stereo not drawn)	> 300 µM (not active)
COc1ccc(CNC(=O)c2cnc3cc(C)ccn3c2=O)cc1	> 300 µM (not active)
O=C(Nc1cc(=O)[nH]c2ncnn12)c1ccc(Cl)cc1Cl	20.5 µM (inconclusive)
COc1ccc(N2C(=O)/C(=C/c3ccc(N(C)C)o3)C(=O)NC2=S)cc1	> 150 µM (inconclusive)
O=C(Nc1cc[n+](-c2nc3ccccc3nc2[N-]S(=O)(=O)c2ccccc2)cc1)c1ccccc1Cl	32.7 µM (active)
CCOc1c(C=C(C#N)C#N)c2ccccc2n1CC	> 300 µM (not active)
CCCN1CCCc2cc(CN)ccc21	13 µM (active)

----------
Overview of reported IC50 across a group of compounds:
assay: cells; format: functional
Activity calls are given as the source filed them.

Compound String	IC50
CC(=O)c1cc2c(ccc3ccccc32)oc1=O	15.4 µM (active)
O=[N+]([O-])c1ccc(S(=O)(=O)c2cccc(C(F)(F)F)c2)nc1	3.47 µM (active)
Cc1cc(C(=O)COc2cccc3cccnc23)c(C)n1C	6.66 µM (active)
CCCOc1ccc(C(=O)NNC(=S)NC(=O)c2ccco2)cc1	2.55 µM (active)
CN(C)S(=O)(=O)c1ccc(C(=O)Oc2ccccc2)cc1	7.22 µM (active)
O=C(Cn1cc([N+](=O)[O-])nc1[N+](=O)[O-])N1CCN(c2ccccc2)CC1	7.01 µM (active)
Cc1cc(C)nc(Sc2ncnc(N)c2[N+](=O)[O-])n1	11.7 µM (active)
Cc1nnc(N/N=C/c2cccc(OCc3ccc(Cl)c(Cl)c3)c2)n1N	5.42 µM (active)

----------
Each entry below carries its recorded IC50.
molecular target: Sentrin-specific protease 8 (Homo sapiens, UniProt Q96LD8); assay type: functional;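 note: luminescence read-out of SENP8 inhibition, dose-response confirmation following an ultra-high-throughput screen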
Sequence (Q96LD8 whole entry): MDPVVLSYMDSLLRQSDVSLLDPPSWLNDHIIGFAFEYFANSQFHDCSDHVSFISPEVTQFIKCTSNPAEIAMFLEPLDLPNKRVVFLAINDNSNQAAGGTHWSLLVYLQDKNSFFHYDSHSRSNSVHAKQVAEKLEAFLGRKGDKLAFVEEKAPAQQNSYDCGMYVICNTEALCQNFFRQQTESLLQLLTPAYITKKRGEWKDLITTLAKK
Activity calls are given as the source filed them.
Observable: IC50

Compound	Observed
CC1CCCN(C(=O)c2ccc(-c3ccccc3Cl)o2)C1 (centres undefined)	31.4 µM (active)
CCOC(=O)/C(=N\Nc1ncnc2ccccc12)c1ccc(OC)cc1	14.2 µM (active)
NC(=O)c1c(NC(=O)c2cc3ccccc3o2)sc2c1CCC2	12.4 µM (active)
COn1c(-c2ccccc2)nc2ccc(Cl)cc21	34.9 µM (active)

----------
As shown below, each of these compounds has a reported pIC50 value.
target: Kappa-type opioid receptor (Homo sapiens, UniProt P41145); assay type: functional
Sequence (P41145 whole entry): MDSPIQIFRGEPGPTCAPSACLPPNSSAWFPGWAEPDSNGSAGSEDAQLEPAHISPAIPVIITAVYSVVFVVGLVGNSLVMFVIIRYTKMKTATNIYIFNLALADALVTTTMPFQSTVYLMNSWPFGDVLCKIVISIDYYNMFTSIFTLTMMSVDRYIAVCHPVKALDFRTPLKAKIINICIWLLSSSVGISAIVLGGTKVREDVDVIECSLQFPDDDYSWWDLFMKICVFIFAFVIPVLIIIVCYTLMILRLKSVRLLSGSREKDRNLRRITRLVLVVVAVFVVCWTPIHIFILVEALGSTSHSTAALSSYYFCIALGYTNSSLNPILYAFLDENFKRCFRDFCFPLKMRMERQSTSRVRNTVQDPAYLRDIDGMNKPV
pIC50: −log10 of the molar value.
Observable: pIC50

Compound String	Target Of Assay	Observable	Observed
Oc1ccc(N=Nc2ccc3c(c2)OCCO3)c2ncccc12	Kappa-type opioid receptor (Homo sapiens, UniProt P41145)	pIC50	< 4.49
Oc1ccc2c3c1O[C@H]1c4oc5ccccc5c4C[C@@]4(O)[C@@H](C2)N(CC2CC2)CC[C@]314	Kappa-type opioid receptor (Homo sapiens, UniProt P41145)	pIC50	> 6.30
CCOc1cc(/C=N/Nc2cc(C)nc(-n3nc(C)cc3C)n2)ccc1O	Kappa-type opioid receptor (Homo sapiens, UniProt P41145)	pIC50	< 4.49

----------
target: Streptokinase A (Streptococcus pyogenes serotype M1, UniProt P10520); assay: S. pyogenes streptokinase expression inhibitors, potency, dose response, plasminogen activation absorbance, OD405 (AID 1914); type: functional, Streptococcus pyogenes M1 GAS;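 note: secreted streptokinase activity via plasminogen activation per viability signal from cell pellet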
Sequence (P10520 whole entry): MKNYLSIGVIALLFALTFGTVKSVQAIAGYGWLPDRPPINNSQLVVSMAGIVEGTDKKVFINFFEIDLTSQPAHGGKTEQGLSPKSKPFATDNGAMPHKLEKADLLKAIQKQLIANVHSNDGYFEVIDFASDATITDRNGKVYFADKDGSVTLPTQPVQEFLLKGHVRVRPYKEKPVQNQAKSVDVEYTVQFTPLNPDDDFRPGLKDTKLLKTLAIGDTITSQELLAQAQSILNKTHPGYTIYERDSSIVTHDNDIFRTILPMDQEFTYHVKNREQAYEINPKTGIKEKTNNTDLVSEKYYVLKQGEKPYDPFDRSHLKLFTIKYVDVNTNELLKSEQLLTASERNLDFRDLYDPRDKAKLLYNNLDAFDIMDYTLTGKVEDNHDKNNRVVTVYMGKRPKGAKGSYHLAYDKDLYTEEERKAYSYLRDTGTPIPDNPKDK
Calls of active or inactive are those of the source.
# EC50 annotations

Compound	EC50
Cc1cc(C)c(C(=O)Nc2ccc(Br)c(C(F)(F)F)c2)c(C)c1	3.29 µM (active)
O=C(O)c1ccccc1N/N=C/c1cc(Br)cc(Br)c1O	32.4 µM (active)
O=C(N/N=C/c1cc2c3c(c1O)CCCN3CCC2)c1ccccc1O	> 150 µM (not active)
Cc1nnc(SC(C(=O)Nc2cc(Cl)cc(Cl)c2)c2ccccc2)[nH]c1=O (stereo not given)	> 150 µM (not active)
CCn1c(SCC(=O)Nc2oc(-c3ccccc3)c(-c3ccccc3)c2C#N)nnc1-c1ccco1	58.8 µM (active)
CN1CCN(C(c2ccc(C(F)(F)F)cc2)c2cc(Cl)c3cccnc3c2O)CC1 (stereo not given)	> 150 µM (not active)
COc1ccc(CCCC(=O)N/N=C/c2cccc(OC)c2O)cc1C	> 150 µM (not active)
COc1cc2c(C(=O)N3CCN(c4ccccc4C)CC3)c(C)oc2cc1Br	79.8 µM (active)
c1ccc(-c2nc(N3CCCCCC3)nc(-n3ccnc3)n2)cc1	> 150 µM (not active)
COc1cccc(-c2nn(-c3ccccc3)cc2C(=O)Nc2nccs2)c1	35.9 µM (active)
Oc1ccc(Br)cc1/C=N/NC(=S)NCCc1ccccc1	> 150 µM (not active)
Cc1ccc(NC(=O)C(OC(=O)c2ccc(NC(N)=O)cc2)c2ccccc2)cc1Cl (stereo not given)	> 150 µM (not active)
O=C1N=C(Nc2ccc(Cl)cc2)SC1Cc1cc(Cl)ccc1Cl (stereo not given)	> 150 µM (not active)
CCOc1cc(/C=N/Nc2cc(C)nc(-n3nc(C)cc3C)n2)ccc1O	> 150 µM (not active)
Oc1nc(NN=C(S)NCc2ccccc2)nc2c1C1(CCCCC1)Cc1ccccc1-2	4.58 µM (active)

----------
assay: cytotoxicity toward NIH3T3 fibroblasts, dose response, counter-screen, cell-based, ATP luminescence, mouse fibroblasts (AID 2010); assay type: functional;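 note: cells exposed to compound for about 90 hours before reading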
Calls of active or inactive are those of the source.
Observable: EC50

Molecule	Observable	Observed
CCN(CC)CCN(C(=O)c1cccc([N+](=O)[O-])c1)c1nc2ccc(OC)cc2s1	EC50	> 60 µM (inconclusive)
CCN1CCN(CCNC(=O)c2ccc(/C=C3/Sc4ccccc4N(Cc4cccc(C)c4)C3=O)cc2)CC1	EC50	8.45 µM (active)
O=C(Nc1ccccc1N1CCCC1)c1ccc([N+](=O)[O-])cc1Cl	EC50	> 60 µM (not active)
CN1CCN(C(c2ccc(C(F)(F)F)cc2)c2cc(Cl)c3cccnc3c2O)CC1 (stereo not given)	EC50	6.54 µM (active)
OC(CNCCc1ccc(C(F)(F)F)cc1)COc1cccc2ccccc12 (stereo not given)	EC50	> 60 µM (inconclusive)

----------
target: UniProt P26358; test: DNMT1 methyltransferase inhibitors, confirmation, biochemical, fluorescent molecular beacon (AID 602386); format: functional
Sequence (P26358 whole entry): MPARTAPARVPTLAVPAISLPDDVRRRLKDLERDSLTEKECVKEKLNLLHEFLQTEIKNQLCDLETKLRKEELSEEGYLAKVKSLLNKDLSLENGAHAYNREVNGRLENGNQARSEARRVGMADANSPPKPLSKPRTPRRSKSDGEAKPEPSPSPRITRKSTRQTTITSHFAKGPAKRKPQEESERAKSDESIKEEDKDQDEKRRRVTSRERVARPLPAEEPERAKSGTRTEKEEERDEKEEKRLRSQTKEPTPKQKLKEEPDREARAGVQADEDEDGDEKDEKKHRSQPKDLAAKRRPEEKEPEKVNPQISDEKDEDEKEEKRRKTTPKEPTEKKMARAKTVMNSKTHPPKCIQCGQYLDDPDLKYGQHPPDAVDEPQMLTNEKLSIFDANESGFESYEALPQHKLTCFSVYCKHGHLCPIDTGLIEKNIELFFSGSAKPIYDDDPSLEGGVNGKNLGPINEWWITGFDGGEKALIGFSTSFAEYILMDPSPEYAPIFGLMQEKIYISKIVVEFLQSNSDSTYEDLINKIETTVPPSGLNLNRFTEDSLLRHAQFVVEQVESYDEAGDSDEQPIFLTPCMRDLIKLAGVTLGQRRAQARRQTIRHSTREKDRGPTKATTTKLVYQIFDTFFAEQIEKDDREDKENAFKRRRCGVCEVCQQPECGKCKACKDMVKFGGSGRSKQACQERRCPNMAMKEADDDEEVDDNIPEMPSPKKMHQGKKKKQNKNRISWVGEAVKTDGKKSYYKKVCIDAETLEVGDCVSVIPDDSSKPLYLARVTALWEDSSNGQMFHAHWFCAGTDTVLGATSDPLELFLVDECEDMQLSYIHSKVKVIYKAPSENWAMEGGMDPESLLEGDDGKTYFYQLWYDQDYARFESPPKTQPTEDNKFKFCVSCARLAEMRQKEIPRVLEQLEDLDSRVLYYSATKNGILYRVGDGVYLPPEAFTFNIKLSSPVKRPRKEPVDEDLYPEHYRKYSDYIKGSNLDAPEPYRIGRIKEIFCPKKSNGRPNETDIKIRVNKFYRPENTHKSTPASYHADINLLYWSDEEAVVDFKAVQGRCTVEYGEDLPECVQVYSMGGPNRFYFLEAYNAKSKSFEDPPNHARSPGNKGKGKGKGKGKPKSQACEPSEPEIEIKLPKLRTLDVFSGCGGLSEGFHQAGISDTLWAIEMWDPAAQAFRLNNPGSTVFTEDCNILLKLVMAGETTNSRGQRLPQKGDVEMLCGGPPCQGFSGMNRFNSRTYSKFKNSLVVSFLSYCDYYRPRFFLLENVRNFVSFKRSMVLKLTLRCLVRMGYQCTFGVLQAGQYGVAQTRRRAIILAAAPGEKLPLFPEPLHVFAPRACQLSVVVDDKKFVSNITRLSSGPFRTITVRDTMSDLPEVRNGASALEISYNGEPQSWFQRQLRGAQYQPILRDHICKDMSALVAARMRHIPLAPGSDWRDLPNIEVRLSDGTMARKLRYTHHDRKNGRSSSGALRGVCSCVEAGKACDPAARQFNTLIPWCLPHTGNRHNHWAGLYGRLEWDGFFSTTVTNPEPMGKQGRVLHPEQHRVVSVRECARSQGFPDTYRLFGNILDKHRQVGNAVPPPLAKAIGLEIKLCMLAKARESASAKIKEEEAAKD
Active and inactive are the calls of the source.

Compound	Target Of Assay	IC50
CN(c1ccccc1)c1ccc(/C=C(/CCC(=O)O)c2nc3ccccc3s2)cc1[N+](=O)[O-]	UniProt P26358	9.98 µM (active)
COC1=C(Br)C(=O)c2nc(C)ccc2C1=O	UniProt P26358	8.73 µM (active)
Cc1ccc(S(=O)(=O)N2[C@@H](c3ccc(C(C)(C)C)cc3)C(C(=O)O)=CC[C@H]2c2ccc(C(C)C)cc2)cc1	UniProt P26358	5.04 µM (active)
O=C(O)C1Nc2c(Cl)cc(Cl)c(Cl)c2C2C=CCC12 (centres undefined)	UniProt P26358	4.36 µM (active)

----------
experiment: Luminescence Cell-Based Dose Confirmation HTS to Identify Activators of 5'UTR Stem-Loop Driven Alpha-Synuclein mRNA Translation in H4 Neuroglioblastoma Cells. [Related pubchem assays: 1829 (Project Summary), 1814 (Primary HTS)]; assay type: functional
Calls of active or inactive are those of the source.
Observable: EC50

Compound String	Observed
COC(=O)c1cc(=O)n(Cc2ccc3c(c2)OCO3)/c(=N/c2ccc(F)c(Cl)c2)s1	10.4 µM (active)
CCN1CCN(C(=O)c2ccc3c(=O)n(CCc4ccccc4)c(=O)[nH]c3c2)CC1	107 µM (active)
Cc1ccc(C(=O)O/N=C(\N)Cc2ccc([N+](=O)[O-])cc2)c(Cl)c1	> 120 µM (not active)
CC(C)(C)C(=O)c1cn(CC(=O)NCc2ccco2)c2ccccc12	14.9 µM (active)

----------
target: RNA-binding protein pos-1 (Caenorhabditis elegans); test: inhibitors of POS-1/mex-3 RNA binding, dose response, biochemical, fluorescence polarization (AID 1964);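 note: purified POS-1 fused to maltose binding protein made in E. coli; potency of compounds blocking POS-1 binding to fluorescent RNA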
Sequence (G5EF15 whole entry, the tested form may be a part): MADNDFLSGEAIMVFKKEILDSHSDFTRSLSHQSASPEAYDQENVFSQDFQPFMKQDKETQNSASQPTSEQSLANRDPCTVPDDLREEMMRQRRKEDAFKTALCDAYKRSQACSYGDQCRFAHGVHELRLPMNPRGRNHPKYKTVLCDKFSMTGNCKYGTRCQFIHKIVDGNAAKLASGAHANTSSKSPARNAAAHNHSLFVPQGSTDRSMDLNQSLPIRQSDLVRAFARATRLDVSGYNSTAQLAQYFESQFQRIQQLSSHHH
The source made the active and inactive calls.
The following molecules are shown together with reported EC50 values.

Molecule	EC50
CCOc1c(C=C(C#N)C#N)c2ccccc2n1CC	> 300 µM (not active)
COc1ccc(CNC(=O)c2cnc3cc(C)ccn3c2=O)cc1	> 300 µM (not active)
COc1ccc(N2C(=O)/C(=C/c3ccc(N(C)C)o3)C(=O)NC2=S)cc1	> 300 µM (not active)
Cc1cc(/C=C2\C(=O)NC(=O)N(C)C2=O)c(C)n1-c1ccc2c(c1)OCO2	> 300 µM (not active)
COc1ccc(N2C(=O)NC(=O)/C(=C/c3ccc4c(c3)Cc3ccccc3-4)C2=O)cc1	> 300 µM (not active)
O=C(Nc1ccccc1)NC1(C(=O)NCc2ccc3c(c2)OCO3)CCCCC1	> 300 µM (not active)
CCCN1CCCc2cc(CN)ccc21	18.5 µM (active)
C=CCSc1nnc(N2C(=O)C(O)=C(C(=O)c3ccco3)C2c2ccc(F)cc2)s1 (stereo not drawn)	114 µM (active)
O=C(Nc1cc[n+](-c2nc3ccccc3nc2[N-]S(=O)(=O)c2ccccc2)cc1)c1ccccc1Cl	> 300 µM (not active)
CN1CC=C2C(C#N)=C(N)C(C#N)(C#N)C(c3cccc(Cl)c3Cl)C2C1 (stereo not drawn)	14.4 µM (active)
CCCCN(C)C(=O)c1cccc(OC2CCN(CC(C)(C)C)CC2)c1	> 300 µM (not active)
O=C(Nc1cc(=O)[nH]c2ncnn12)c1ccc(Cl)cc1Cl	43.5 µM (inconclusive)
Cc1nnc(N2C(=O)C(O)=C(C(=O)c3ccco3)C2c2cccc3ccccc23)s1 (stereo not drawn)	> 300 µM (not active)
